Catalogue of TGI values
Tested on: EKVX NSCLC
method summary: NCI tumour cell line growth inhibition, 48 h

// known answers, use as guide
* COC(=O)[C@H]1C=C[C@H](OC2OC(COC(C)=O)C(OC(C)=O)C(OC(C)=O)C2OC(C)=O)n2c(=O)n(-c3ccccc3)c(=O)n21 (some centres undefined) | 7.37 µM
* c1ccc(-c2ccc(N=NN3CCCC3)cc2)cc1 | > 100 µM

Consider c1ccc2c(c1)N=C(c1cccc3ccccc13)CC(c1cccc3ccccc13)S2 (centres undefined) . Its measured TGI is 28.7 µM

Per the record, `C=C1C(=O)O[C@H]2[C@H]1CC/C(COC(=O)c1cc3cc(OC)ccc3[nH]1)=C\CC[C@@]1(C)O[C@@H]21` has TGI of 3.1 µM

----------
System: NCI-H226 lung
method summary: NCI tumour cell line growth inhibition, 48 h
metric name: GI50

Consider the reported GI50 for these molecules:
- COC(=O)NC/C=C\c1nc(CC/C=C\C(=O)OC2CC3CC(=O)O[C@@H](/C=C/CC(C)C)C[C@@H]4CCC(C)C(C[C@@H](OC)CC(C2)O3)O4)co1 (some centres not stated): 24.4 µM
- COc1cc2c3c(n(CCCN4CCC(N)CC4)c(=O)c2cc1OC)-c1cc2c(cc1C3=O)OCO2: 0.757 µM
- O=C(N/N=C/c1ccc(Cl)cc1Cl)c1ccccc1Nc1cccc(C(F)(F)F)c1: 3.67 µM
- Clc1ccc(OCc2nnc3n2N=C(c2ccc(Cl)cc2Cl)CS3)c(Cl)c1: 17.6 µM
- Cc1ccc(C(=O)CC(Sc2cccc(Cl)c2Cl)c2ccc(Cl)cc2)cc1C (configuration not stated): 20.5 µM

Value of measured GI50 for the entry `CN1CCN(Cc2ccc(NC(=O)c3ccc(C(C)(C)C)c(C#Cc4cnc5cccnn45)c3)cc2C(F)(F)F)CC1` : 4.63 µM

----------
Test system: MOLT-4 leukemia
method summary: NCI tumour cell line growth inhibition, 48 h
metric name: TGI (µM)
Supply the numeric figure in µM, leaving out any unit text.

* CC(=O)[CH-]C(C)=O.CC(=O)[CH-]C(C)=O.N=CC=N.[Sn+2] | 7.47

Continue with the compound presented below.
Value (TGI, MOLT-4 leukemia) for record `CN(C)CCNC(=O)Nc1c(C#N)[n+]([O-])c2cc(Cl)c(Cl)cc2[n+]1[O-]` = 20.9

----------
# reported TGI; entries follow
System: OVCAR-3 ovarian
method summary: NCI tumour cell line growth inhibition, 48 h

Example entries begin here.
- O=c1c(Cc2ccccc2)c(-c2ccccc2)[nH]n1C1=NCCN1: > 100 µM
- CCOC(=O)c1c(NC(=S)Nc2ccc(C)cc2)sc2c1CCN(C)C2: > 100 µM
- NC1=NC(=O)C(CC(=O)Nc2ccc([N+](=O)[O-])cc2[N+](=O)[O-])S1 (centres undefined): > 100 µM
- CN1CCN(Cc2ccc(NC(=O)c3ccc(C(C)(C)C)c(C#Cc4cnc5cccnn45)c3)cc2C(F)(F)F)CC1: 12.2 µM
- CCCCCC(C(O)C#N)C(O)(C(F)(F)F)C(F)(F)F (centres undefined): > 10 µM

Briefly, TGI measured for `CNC(=O)c1ccc(-c2cnc3ncc(Cc4ccc5ncccc5c4)n3n2)cc1F` : > 100 µM

----------
Tested on: SF-268 CNS
method summary: NCI tumour cell line growth inhibition, 48 h
Measured GI50 of individual entries

* C[C@H]1CCC/C=C/[C@@H]2C[C@H](N)C[C@H]2[C@H](O)/C=C/C(=O)O1 | > 100 µM
* O=C(Nc1cc(-c2ccccc2)[nH]n1)c1ccc(Cl)cc1 | 28.6 µM
* Cc1ccc(C(=O)CC(Sc2cccc(Cl)c2Cl)c2ccc(Cl)cc2)cc1C (centres undefined) | 21.3 µM

Let us move to another entry and its GI50.
Entry `C=C1C(=O)O[C@H]2[C@H]1CC/C(COC(=O)c1cc3cc(OC)ccc3[nH]1)=C\CC[C@@]1(C)O[C@@H]21` ; GI50 = 1.66 µM

----------
Test system: SR leukemia
method summary: NCI tumour cell line growth inhibition, 48 h; in the data active means GI50 below about 0.43 µM; inactive means the rest
The reply should be one of these categories: active, inactive

Recorded results for 6 compounds are shown here.
* CCCCCCNc1nc(NCCCCCC)c2[nH]c(NCCCCCC)nc2n1 | inactive
* CCN(Cc1c(F)cccc1F)c1ccc(CO)c(Cl)c1 | inactive
* CC(=O)[CH-]C(C)=O.CC(=O)[CH-]C(C)=O.N=CC=N.[Sn+2] | inactive
* CCn1c(-c2nonc2N)nc2ccc(F)cc21 | inactive
* Cc1sc(C)c(-c2ccc(CO)o2)c1-c1ccc(CO)o1 | inactive
* CCCS(=O)(=O)c1nc(NC2CC2)cc(-c2ccc3c(ccn3C3CC(C)(C)NC(C)(C)C3)c2)n1 | active

input: How did this test come out for COc1cc(/C=C2\CC3C4CC=C5CC(N6CCCC6)CC[C@]5(C)C4CC[C@]3(C)C2OC(C)=O)ccc1OCCN1CCCC1 (stereo not given in full) ?
output: inactive

input: Lab log entry: COc1ccc(C2C(C#N)=C(N)OC3=C2CCCc2ccc(F)cc23)cc1OC (stereo not given) — outcome as called in the assay?
output: inactive

input: Recorded test call requested for `CNC(=O)c1ccc(-c2cnc3ncc(Cc4ccc5ncccc5c4)n3n2)cc1F`
output: inactive

input: Please share the test call associated with `Cc1ccc2/c(=C/c3ccc(N(C)C)cc3)c3cc(-c4ccccc4)[n+](C)n3c2c1` .
output: active

----------
Collected TGI values appear next to each entry.
Tested on: UACC-62 melanoma
method summary: NCI tumour cell line growth inhibition, 48 h

Before answering, review these 4 worked examples.
• CCN(C(=O)N[C@H](C(=O)N[C@@H](C)C(=O)OC)C(C)C)c1ccccc1 = 55.7 µM
• NC1=NC(=O)C(CC(=O)Nc2ccc([N+](=O)[O-])cc2[N+](=O)[O-])S1 (stereo not given) = > 100 µM
• COC(=O)C(CCSC)NC(=O)CSc1nnc(COc2ccc(Cl)cc2)n1-c1ccccc1 (stereo not given) = 32.7 µM
• CNc1ccc2c(c1)Cc1ccccc1-2 = 89.7 µM

Lookup result for CCOC(=O)C(C)NC(=O)N(C)C12CC3CC(CC(C3)C1)C2 (stereo not given) ; measured TGI: > 474 µM

Short answer for COP(=O)(CC(=O)C1OC(OCc2ccccc2)C(OCc2ccccc2)C(OCc2ccccc2)C1OCc1ccccc1)OC (stereo not given) : TGI was 17.8 µM

# TGI of COc1ccc(C(=O)C(C(=O)CCC(=O)Nc2cccc(C(F)(F)F)c2)c2ccccc2)cc1 (stereo not given) = > 100 µM

// field: TGI; key: COc1cc(CCCOC2OC(COC3OCC(O)C(O)C3O)C(O)C(O)C2O)cc2cc(-c3ccc4c(c3)OCO4)oc12 (stereo not given) ; value = > 175 µM

In plain terms, `COc1ccc(CN2C(=O)C(=O)N(C)C2=O)c2ccccc12` has a documented TGI of > 10 µM

Lab note: measured TGI of `COc1ccccc1C(=O)c1ccc2ccccc2c1` was > 100 µM

----------
System: OVCAR-8 ovarian
method summary: NCI tumour cell line growth inhibition, 48 h; in the data active = GI50 below about 0.43 µM; inactive = the rest
Allowed answers: active, inactive

Solved entries (count: 10):
• CN(C)c1nc(-c2cccs2)n2nc(-c3ccc(Cl)cc3)cc2n1 = inactive
• c1cc[c]([Sn]([S]c2cccc3cccnc23)([c]2ccccc2)[c]2ccccc2)cc1 = active
• C=C1C(=O)O[C@H]2[C@H]1CC/C(COC(=O)c1cc3cc(OC)ccc3[nH]1)=C\CC[C@@]1(C)O[C@@H]21 = inactive
• O=C(N/N=C/c1ccc(Cl)cc1Cl)c1ccccc1Nc1cccc(C(F)(F)F)c1 = inactive
• COCC(=O)OC1CCn2c1nc1c2C(=O)C(C)=C(NC(C)=O)C1=O (centres undefined) = inactive
• COc1ccc(C2C(C#N)=C(N)OC3=C2CCCc2ccc(F)cc23)cc1OC (centres undefined) = inactive
• N#Cc1c(-c2ccccc2)nc2c(c(-c3ccccc3)nn2-c2ccccc2)c1-c1ccc(O)cc1 = inactive
• COC(=O)NC/C=C\c1nc(CC/C=C\C(=O)OC2CC3CC(=O)O[C@@H](/C=C/CC(C)C)C[C@@H]4CCC(C)C(C[C@@H](OC)CC(C2)O3)O4)co1 (some centres undefined) = inactive
• Cc1noc(C)c1-c1ccc2[nH]c(=O)n3c2c1OC[C@@H]3c1ccccn1 = inactive
• NCCN1CCN(c2nccc(-c3ccc4ccccc4c3)n2)CC1 = inactive

input: Identify the outcome logged in this assay for the molecule shown: `COc1cc(-c2cn(C)c(=O)c(C)c2C)cc(OC)c1CN1CC[C@H](N2CCN(c3ccc(N[C@H]4CCC(=O)NC4=O)cc3F)CC2)C(F)(F)C1`
output: inactive

input: Check the results log: what was the call for `COc1cc2c3c(n(CCCN4CCC(N)CC4)c(=O)c2cc1OC)-c1cc2c(cc1C3=O)OCO2` ?
output: active

input: Each molecule tested received a call. Report the one for `Cc1ncc(NC(=O)c2ccc(CN3CCN(C)CC3)c(C(F)(F)F)c2)cc1Nc1nccc(-c2cccnc2)n1` .
output: inactive

input: Fill in: this test's call for `CCn1c(-c2nonc2N)nc2ccc(F)cc21` is ___
output: inactive

input: What did this assay record as the result for `C=CCOc1c(Br)cc(Br)cc1Br` ?
output: inactive
